Tested on: NCI-H23
Assay explanation: NCI tumour cell line growth inhibition, 48 h
Active and inactive are the calls of the source. Cut-off read from the data, not from the text of the source: active = GI50 up to about 1.1 µM and inactive = higher.
Outcomes: active, inactive

Compound	Group label
CCCOC(=O)c1cc(C(=CCC[C@H]2CC[C@@]3(C)[C@@H](CC[C@@H]4[C@@H]3CC[C@]3(C)[C@@H](C(C)CCCC(C)C)CC[C@@H]43)C2)c2cc(Cl)c(O)c(C(=O)OCCC)c2)cc(Cl)c1O (stereo partly specified)	inactive
O=c1c2ccccc2nc(N/N=C/c2ccc(Cl)cc2)n1-c1ccccc1	inactive
CCC(C)C1NC(=O)C(NC(=O)C(CC(C)C)N(C)C(=O)[C@@H]2C=CCN2C(=O)[C@H](C)O)C(C)OC(=O)[C@H](Cc2ccc(OC)cc2)N(C)C(=O)[C@@H]2CCCN2C(=O)[C@H](CC(C)C)NC(=O)C(C)C(=O)[C@H](C(C)C)OC(=O)CC1O (stereo partly specified)	active
COc1ccc([Se][Se]c2ccc(OC)cc2OC)c(OC)c1	inactive
Clc1cc(C(c2cc(Cl)sc2Cl)c2cc(Cl)sc2Cl)c(Cl)s1	inactive
c1ccc(B2OCC(C3OB(c4ccccc4)OC4COB(c5ccccc5)OC43)O2)cc1 (stereo unspecified)	inactive
COc1cccc2c1c1ccc3c(c1n2C)C(=O)C=CC3=O	inactive
N=C(N)Nc1ccc(CC(N)C(=O)NCC(=O)C(CC(=O)O)c2ncc(NC(=O)C(F)(F)F)o2)cc1 (stereo unspecified)	inactive
Oc1ccc(Cl)cc1C1=NC(NCNC2=NC(c3ccccc3)CC(c3cc(Cl)ccc3O)=N2)=NC(c2ccccc2)C1 (stereo unspecified)	inactive
C=CC1CCC[N+]1(CC(=O)OCC)Cc1ccccc1 (stereo unspecified)	inactive
c1nc2cscc2c2cscc12	inactive
CCC1(O)CC(OC2CC(N(C)C)C(OC3CC(O)C(OC4CCC(=O)C(C)O4)C(C)O3)C(C)O2)c2c(O)c3c(c(O)c2C1C(=O)OC)C(=O)c1cccc(O)c1C3=O (stereo unspecified)	active
COc1cc(O)c2c(=O)cc(C3(OC(C)=O)C=CC(OC4OC(CO)C(O)C(O)C4O)C=C3)oc2c1 (stereo unspecified)	inactive
O=c1[nH]nc(Cn2c3ccc(Br)cc3c3nc4ccccc4nc32)n1C1CCCCC1	inactive
CC[C@H](NC(=O)OC(C)(C)C)C(=O)NCP(=O)(OCc1ccc([N+](=O)[O-])cc1)OCc1ccc([N+](=O)[O-])cc1	inactive
COCCc1c(C)c(C#N)c2n(C)c3ccccc3n2c1=O	inactive
C=C(C)CC1(O)C(=O)C(OCC)=C1OCC (stereo unspecified)	inactive
CC(=O)N1N=C(c2ccc3ccccc3c2O)CC1c1ccc(Cl)cc1Cl (stereo unspecified)	inactive
[N-]=[N+]=CC(=O)OCC1SCCCS1	inactive
OCC(O)COCn1cc(Cn2ncc3c(SCc4ccccc4)ncnc32)nn1 (stereo unspecified)	inactive
Nc1nc(Cl)c(/N=N/c2ccc(Cl)cc2)c(NCC2(CO)CCC(CCc3ccccc3)C2)n1 (stereo unspecified)	inactive
CCOC(=O)NC(OC)(C(F)(F)F)C(F)(F)F	inactive
Cc1ccc(S(=O)(=O)N2CCCSCC2)cc1	inactive
Cc1ccc(/N=C2\C(=O)C3=C(OC(C)(C)CC3)c3ccccc32)cc1	active
O=C1NC(N2CCCC(CO)C2)=N/C1=C\c1ccc(Cl)cc1 (stereo unspecified)	inactive
Cc1c(N(Cc2ccccc2)Cc2ccccc2)nc(S(C)(=O)=O)nc1S(C)(=O)=O	inactive
S=C(Nc1ccc(Br)cn1)NC12CC3CC(CC(C3)C1)C2	inactive
CC(C)c1cccc(C(C)C)c1OS(=O)(=O)NC(=O)OC(C(F)(F)F)C(F)(F)F	inactive
COc1cc(OC)c(OC)cc1/C=C1\C=Cc2ccccc21	inactive
Cc1ccc(O)c(C2=CC3=NNC(=O)C3C(c3cccc(Br)c3)C2)c1 (stereo unspecified)	inactive
COc1cc(C(C)(C)C)c(OC(=O)/C=C/C(=O)O/C=C/[N+](=O)[O-])c(C(C)(C)C)c1	inactive

====

Test system: TK-10
Assay explanation: NCI tumour cell line growth inhibition, 48 h
Calls of active or inactive are those of the source. No stated cut-off is given here; in the data, active = GI50 up to about 1.1 µM and inactive = higher.
Observable: GI50

Mol	Recorded measurement
COc1cccc2c1c1ccc3c(c1n2C)C(=O)C=CC3=O	18.9 µM (inactive)
Clc1ccc(-c2nc3ccc4ccccc4c3c3c2CCCC3)cc1	> 100 µM (inactive)
O=c1[nH]n2c(=O)cc[nH]c2c1-c1nnns1	> 100 µM (inactive)

====

System: SNB-19
Assay explanation: NCI tumour cell line growth inhibition, 48 h
Calls of active or inactive are those of the source. No stated cut-off is given here; in the data, active = GI50 up to about 1.1 µM and inactive = higher.
// reported GI50 for each item listed
Observable: GI50

Molecule	Observable	Recorded measurement
CC(CCC(=O)O)c1ccc(Br)cc1 (centres undefined)	GI50	> 100 µM (inactive)
CCCCNC1=C2C(=O)NN=C2CO1	GI50	> 100 µM (inactive)
CC(C)(C)OC(=O)NCC(=O)OCc1ccccc1	GI50	> 100 µM (inactive)
O=C1OC([C@H](O)c2cccnc2)c2ccccc21 (some centres undefined)	GI50	> 10 µM (inactive)

====

System: HL-60
Assay explanation: NCI tumour cell line growth inhibition, 48 h
Calls of active or inactive are those of the source. Rule as the data show it: active = GI50 up to about 1.1 µM and inactive = higher.
// reported GI50 for each item listed

Molecule	Target or test system	GI50
Cn1ccc(C(=O)NCCCCCNC(=O)c2ccn(C)c(=O)c2O)c(O)c1=O	HL-60	> 100 µM (inactive)
CC(=O)Nc1ccc(C(=O)N2N=C(C)/C(=C/c3ccccc3O)C2=O)cc1	HL-60	> 100 µM (inactive)
COc1ccc(CC2C3=C(CCN2C(=O)C2CCC2)CC2(CC3)OCCO2)cc1O (configuration not stated)	HL-60	18.8 µM (inactive)
O=C1NC(c2ccc3ccccc3c2)Nc2ccccc21 (configuration not stated)	HL-60	15.2 µM (inactive)
O=C(O)COc1cc(-c2ccccc2)nc2ccccc12	HL-60	41.2 µM (inactive)
CCN(CC)CC1CCCCN1CC(=O)N1c2ccc(Br)cc2C(=O)Nc2cccnc21 (configuration not stated)	HL-60	> 100 µM (inactive)
O=C(CCC(=O)Nc1ccc(Cl)c(Cl)c1)Cc1nc2ccccc2o1	HL-60	> 100 µM (inactive)
COc1ccc(N)c(C(O)CCNC(C)=O)c1 (configuration not stated)	HL-60	> 100 µM (inactive)
CC(=O)Oc1cc2c(n(C)c1=O)CCC2	HL-60	81.5 µM (inactive)
C=C1C(=O)O[C@@H]2[C@H]3O[C@]3(C)CCC=C(C)CC[C@@H]12	HL-60	4.69 µM (inactive)
COc1ccc2oc(=O)c(-c3nc4ccccc4s3)cc2c1	HL-60	> 100 µM (inactive)
Nc1ccc2c(c1)NC(=O)[C@@H]1CCCN1C2=O	HL-60	> 100 µM (inactive)
OCc1cn(C(c2ccccc2)(c2ccccc2)c2ccccc2)cn1	HL-60	> 100 µM (inactive)
COc1ccc(C2C(C(=O)O)=C(COC(C)=O)Oc3cc4c(cc32)OCO4)c(OC)c1 (configuration not stated)	HL-60	> 100 µM (inactive)
COC(=O)[C@@]1(C)/C(=N/NS(=O)(=O)c2ccc(C)cc2)CCC[C@@H]1C	HL-60	6.37 µM (inactive)
Cc1ccc(S(=O)(=O)OC2C(O)C(O)OC2C(c2cc(O)c3c(c2O)C(=O)c2ccccc2C3=O)c2cc(O)c3c(c2O)C(=O)c2ccccc2C3=O)cc1 (configuration not stated)	HL-60	1.87 µM (inactive)
Nc1nnc(CCC(=O)Nc2cc(Cl)ccc2Cl)n1N	HL-60	> 100 µM (inactive)

====

Tested on: SF-268
Assay explanation: NCI tumour cell line growth inhibition, 48 h
Calls of active or inactive are those of the source. No stated cut-off is given here; in the data, active = GI50 up to about 1.1 µM and inactive = higher.
// reported GI50 for each item listed

Molecule	GI50
C=CS(=O)(=O)CCN1CC1	> 10 µM (inactive)
COc1cc(Cc2nccc3cc(OC)c(OC)cc23)c(C(C)=O)cc1OC	1.56 µM (inactive)
O=C(O)c1ccccc1/C=C1\Cc2ccc3c(c2C1=O)CCCC3	64 µM (inactive)
COc1cc(OC)c(OC)cc1/C=C1\C=Cc2ccccc21	17.1 µM (inactive)
Clc1sc(Cl)c2c1[C@@H](Cl)C[C@@H]2Cl	62.1 µM (inactive)
CNC(=O)N(C)C(=O)c1ccccc1C(=O)N(C)C(=O)NC	> 10 µM (inactive)
Cc1cc2ncn(C3CCCCO3)c2cc1C (stereo not given)	> 100 µM (inactive)
Cc1ccc(-n2cc(-c3ccc(Cl)cc3)c3c2N=CN2N=C(c4cccs4)NC32)cc1 (stereo not given)	17.8 µM (inactive)
COc1ccc(CC2C3=C(CCN2C(=O)C2CCC2)CC2(CC3)OCCO2)cc1O (stereo not given)	35.2 µM (inactive)
COc1ccc(-c2nc3ncccn3c2-c2ccc(S(C)(=O)=O)cc2)cc1	35.2 µM (inactive)
Cc1cc2nc3c(C#N)c4c(c(Nc5ccc(F)cc5)n3c2cc1C)CCC4	> 100 µM (inactive)
COC(CC1(/C=C/O[Si](C(C)C)(C(C)C)C(C)C)C(=O)N(C)c2ccccc21)OC (stereo not given)	36.6 µM (inactive)
CCN1C[C@]2(COC)[C@H](O)C[C@H](OC)[C@]34C1[C@H]([C@H](OC)[C@H]23)[C@]1(OC(C)=O)[C@H]2[C@@H](OC(=O)c3ccccc3)[C@](O)(C[C@H]24)[C@@H](OC)[C@@H]1O	> 100 µM (inactive)
COc1cc(C(Cc2ccccc2)NC(C)=O)oc(=O)c1 (stereo not given)	89.1 µM (inactive)
Cn1cc2ccccc2c1-c1nc(F)nc(Oc2ccc3c(c2)CC[C@@H]2C3CC[C@]3(C)C(O)CCC23)n1 (stereo not given in full)	17.3 µM (inactive)

Source: ChEMBL document CHEMBL1201862
